Would you kindly list polymerase ribozyme fitness (log ratio) for each of these variants?
B1: TPR 5TU (parent)
chain: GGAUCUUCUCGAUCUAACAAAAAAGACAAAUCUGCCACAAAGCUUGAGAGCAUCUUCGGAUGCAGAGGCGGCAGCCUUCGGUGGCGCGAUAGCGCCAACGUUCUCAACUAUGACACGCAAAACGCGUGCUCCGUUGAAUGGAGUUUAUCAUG

- Variants of: B1
- Method Summary: polymerase ribozyme fitness, log enrichment relative to wild type (log ratio); higher = more active; in vitro selection for triplet polymerase activity
Variants at the floor of the assay were thinned out.

Entry A41C G48A : reported polymerase ribozyme fitness (log ratio) = ? -1.3

What do you have for C75U G94C G100U A107G ? ≤ -4.2

Same read-out for U13G A37U C43U A52C A73C G84C U109C G140A ? ≤ -4.2

Next: A23U G50C U139G ≤ -4.2

Now consider C63U A98G G126U C129G . ≤ -4.2

// next record A30U C43G ≤ -4.2

And what about the variant C10U C118U ? -2.81

Then G46C C72U G94A U102C A110G C125G A147C ? ≤ -4.2

Similarly, A28C U61A G88A ? ≤ -4.2
